Measured activity coefficient values are reported for all entries that follow.
assay.info: activity coefficient (dimensionless); of the first substance listed, at infinite dilution; xn = mol fraction of the nth substance listed
condition.parameters: 332.5 K; 101 kPa; Liquid; Chromatography; x1 = 0

molecule | activity coefficient
CC1CCCC1 [methylcyclopentane] + CCCCCCCCCC[N+]1(C)CCCC1.O=S(=O)([N-]S(=O)(=O)C(F)(F)F)C(F)(F)F | 2.76
Cc1cccc(C)c1 [1,3-dimethylbenzene] + CCCCCCCCCC[N+]1(C)CCCC1.O=S(=O)([N-]S(=O)(=O)C(F)(F)F)C(F)(F)F | 1
C1COCCO1 [1,4-dioxane] + CCCCCCCCCC[N+]1(C)CCCC1.O=S(=O)([N-]S(=O)(=O)C(F)(F)F)C(F)(F)F | 0.35
CCCCCC [hexane] + CCCCCCCCCC[N+]1(C)CCCC1.O=S(=O)([N-]S(=O)(=O)C(F)(F)F)C(F)(F)F | 3.78
CC(C)O [propan-2-ol] + CCCCCCCCCC[N+]1(C)CCCC1.O=S(=O)([N-]S(=O)(=O)C(F)(F)F)C(F)(F)F | 1.38
CCc1ccccc1 [ethylbenzene] + CCCCCCCCCC[N+]1(C)CCCC1.O=S(=O)([N-]S(=O)(=O)C(F)(F)F)C(F)(F)F | 1.04
CCOCC [diethyl ether] + CCCCCCCCCC[N+]1(C)CCCC1.O=S(=O)([N-]S(=O)(=O)C(F)(F)F)C(F)(F)F | 1.25
C#CCCCCC [1-heptyne] + CCCCCCCCCC[N+]1(C)CCCC1.O=S(=O)([N-]S(=O)(=O)C(F)(F)F)C(F)(F)F | 1.83
CO [methanol] + CCCCCCCCCC[N+]1(C)CCCC1.O=S(=O)([N-]S(=O)(=O)C(F)(F)F)C(F)(F)F | 1.32
C[N+](=O)[O-] [nitromethane] + CCCCCCCCCC[N+]1(C)CCCC1.O=S(=O)([N-]S(=O)(=O)C(F)(F)F)C(F)(F)F | 0.62
CCCCO [butan-1-ol] + CCCCCCCCCC[N+]1(C)CCCC1.O=S(=O)([N-]S(=O)(=O)C(F)(F)F)C(F)(F)F | 1.85
CCO [ethanol] + CCCCCCCCCC[N+]1(C)CCCC1.O=S(=O)([N-]S(=O)(=O)C(F)(F)F)C(F)(F)F | 1.34
C#CCCCC [1-hexyne] + CCCCCCCCCC[N+]1(C)CCCC1.O=S(=O)([N-]S(=O)(=O)C(F)(F)F)C(F)(F)F | 1.48
ClCCl [dichloromethane] + CCCCCCCCCC[N+]1(C)CCCC1.O=S(=O)([N-]S(=O)(=O)C(F)(F)F)C(F)(F)F | 0.3

###

assay.info: activity coefficient (dimensionless); of the first substance listed, at infinite dilution; xn = mol fraction of the nth substance listed
condition.parameters: 343.1 K; 101 kPa; Liquid; Chromatography; x1 = 0

compound | activity coefficient
Cc1ccccc1 [toluene] + CCCCCC[N+]1(C)CCCC1.O=S(=O)([N-]S(=O)(=O)C(F)(F)F)C(F)(F)F | 1.04
c1ccsc1 [thiophene] + CCCCCCCC[N+]1(C)CCCC1.O=S(=O)([N-]S(=O)(=O)C(F)(F)F)C(F)(F)F | 0.53
CC1CCCCC1 [methylcyclohexane] + CCCCCCCC[N+]1(C)CCCC1.O=S(=O)([N-]S(=O)(=O)C(F)(F)F)C(F)(F)F | 3.9
CCCCCCC [heptane] + CCCCCC[N+]1(C)CCCC1.O=S(=O)([N-]S(=O)(=O)C(F)(F)F)C(F)(F)F | 9.58

###

assay.info: activity coefficient (dimensionless); of the first substance listed, at infinite dilution; xn = mol fraction of the nth substance listed
condition.parameters: 342.8 K; 101 kPa; Liquid; Chromatography; x1 = 0
reported.endpoint: activity coefficient

molecule | numeric.readout
CCCCCCCC [octane] + CCCCCCCCCC[N+]1(C)CCCC1.O=S(=O)([N-]S(=O)(=O)C(F)(F)F)C(F)(F)F | 5.76
c1ccsc1 [thiophene] + CCCCCCCCCC[N+]1(C)CCCC1.O=S(=O)([N-]S(=O)(=O)C(F)(F)F)C(F)(F)F | 0.61
CCCCCCC [heptane] + CCCCCCCCCC[N+]1(C)CCCC1.O=S(=O)([N-]S(=O)(=O)C(F)(F)F)C(F)(F)F | 4.62
C#CCCCC [1-hexyne] + CCCCCCCCCC[N+]1(C)CCCC1.O=S(=O)([N-]S(=O)(=O)C(F)(F)F)C(F)(F)F | 1.47
C[N+](=O)[O-] [nitromethane] + CCCCCCCCCC[N+]1(C)CCCC1.O=S(=O)([N-]S(=O)(=O)C(F)(F)F)C(F)(F)F | 0.6
ClCCl [dichloromethane] + CCCCCCCCCC[N+]1(C)CCCC1.O=S(=O)([N-]S(=O)(=O)C(F)(F)F)C(F)(F)F | 0.3
CCC(C)CC [3-methylpentane] + CCCCCCCCCC[N+]1(C)CCCC1.O=S(=O)([N-]S(=O)(=O)C(F)(F)F)C(F)(F)F | 3.4

###

assay.info: activity coefficient (dimensionless); of the first substance listed, at infinite dilution; xn = mol fraction of the nth substance listed
condition.parameters: 332.5 K; 101 kPa; Liquid; Chromatography; x1 = 0
Note to self: values exactly at 3 are Satisfied. So activity coefficient at or above 3 is Satisfied, below is Not satisfied.

compound | assigned.category
CCCCCCCCCC [decane] + CCCCCCCCCC[N+]1(C)CCCC1.O=S(=O)([N-]S(=O)(=O)C(F)(F)F)C(F)(F)F | Satisfied
CCCCCCCC [octane] + CCCCCCCCCC[N+]1(C)CCCC1.O=S(=O)([N-]S(=O)(=O)C(F)(F)F)C(F)(F)F | Satisfied
CC(C)CO [2-methyl-1-propanol] + CCCCCCCCCC[N+]1(C)CCCC1.O=S(=O)([N-]S(=O)(=O)C(F)(F)F)C(F)(F)F | Not satisfied
CCC(C)CC [3-methylpentane] + CCCCCCCCCC[N+]1(C)CCCC1.O=S(=O)([N-]S(=O)(=O)C(F)(F)F)C(F)(F)F | Satisfied
C1CCCCCC1 [cycloheptane] + CCCCCCCCCC[N+]1(C)CCCC1.O=S(=O)([N-]S(=O)(=O)C(F)(F)F)C(F)(F)F | Satisfied
C1CCCCC1 [cyclohexane] + CCCCCCCCCC[N+]1(C)CCCC1.O=S(=O)([N-]S(=O)(=O)C(F)(F)F)C(F)(F)F | Not satisfied
Cc1ccc(C)cc1 [1,4-dimethylbenzene] + CCCCCCCCCC[N+]1(C)CCCC1.O=S(=O)([N-]S(=O)(=O)C(F)(F)F)C(F)(F)F | Not satisfied

###

assay.info: activity coefficient (dimensionless); of the first substance listed, at infinite dilution; xn = mol fraction of the nth substance listed
condition.parameters: 333 K; 101 kPa; Liquid; Chromatography; x1 = 0

compound | activity coefficient
CCC(C)=O [butanone] + CCCCCCCC[N+]1(C)CCCC1.O=S(=O)([N-]S(=O)(=O)C(F)(F)F)C(F)(F)F | 0.34
CCC(C)CC [3-methylpentane] + CCCCCC[N+]1(C)CCCC1.O=S(=O)([N-]S(=O)(=O)C(F)(F)F)C(F)(F)F | 6.46
CCCCCCCCCCC [undecane] + CCCCCCCC[N+]1(C)CCCC1.O=S(=O)([N-]S(=O)(=O)C(F)(F)F)C(F)(F)F | 15.6
Cc1ccccc1 [toluene] + CCCCCC[N+]1(C)CCCC1.O=S(=O)([N-]S(=O)(=O)C(F)(F)F)C(F)(F)F | 1.01
CCC(C)=O [butanone] + CCCCCC[N+]1(C)CCCC1.O=S(=O)([N-]S(=O)(=O)C(F)(F)F)C(F)(F)F | 0.42
c1ccsc1 [thiophene] + CCCCCCCC[N+]1(C)CCCC1.O=S(=O)([N-]S(=O)(=O)C(F)(F)F)C(F)(F)F | 0.55
Cc1ccc(C)cc1 [1,4-dimethylbenzene] + CCCCCCCC[N+]1(C)CCCC1.O=S(=O)([N-]S(=O)(=O)C(F)(F)F)C(F)(F)F | 0.99
C[N+](=O)[O-] [nitromethane] + CCCCCC[N+]1(C)CCCC1.O=S(=O)([N-]S(=O)(=O)C(F)(F)F)C(F)(F)F | 0.57
C#CCCCC [1-hexyne] + CCCCCC[N+]1(C)CCCC1.O=S(=O)([N-]S(=O)(=O)C(F)(F)F)C(F)(F)F | 2.1
ClC(Cl)Cl [trichloromethane] + CCCCCCCC[N+]1(C)CCCC1.O=S(=O)([N-]S(=O)(=O)C(F)(F)F)C(F)(F)F | 0.58
CCCCCCCC [octane] + CCCCCCCC[N+]1(C)CCCC1.O=S(=O)([N-]S(=O)(=O)C(F)(F)F)C(F)(F)F | 7.8
C#CCCCC [1-hexyne] + CCCCCCCC[N+]1(C)CCCC1.O=S(=O)([N-]S(=O)(=O)C(F)(F)F)C(F)(F)F | 1.58
CCCCCC [hexane] + CCCCCC[N+]1(C)CCCC1.O=S(=O)([N-]S(=O)(=O)C(F)(F)F)C(F)(F)F | 7.38
CO [methanol] + CCCCCCCC[N+]1(C)CCCC1.O=S(=O)([N-]S(=O)(=O)C(F)(F)F)C(F)(F)F | 1.09
